system: OVCAR-3 ovarian; experiment: NCI-60 one-dose screen, 48 h (100 = growth as untreated, 0 = no growth, -100 = all killed); settings: 10 µM unless noted
About 83,000 compounds went through this panel and 20% of them were active in at least one assay; those are over-represented in the sample as a whole.
Returns one of yes (1) or no (0); yes (1) when growth is >= 90%.

Observe how each entry below is paired with its result.
Cc1cc(=O)oc2cc(OCCCCOc3ccc(/C=C/C(=O)Nc4ccccc4N)cc3)ccc12	no (0)
Cn1cc(-c2cc(N)n3nc(-c4cn(C)c5ccccc45)cc3n2)c2cc(Cl)ccc21	no (0)
Cc1ccc(C2=NN(c3nc(-c4cc5ccccc5oc4=O)cs3)C(c3ccc(C)cc3)C2)cc1 (centres undefined)	yes (1)
C#CCOc1ccc(/C=N/Nc2nc(-c3cc4cc(Br)ccc4oc3=O)cs2)cc1OC	no (0)
COc1cc(C2CC(c3cc(OC)c(OC)c(OC)c3)=NN2c2ccccc2)ccc1OCc1ccc(C)cc1 (centres undefined)	yes (1)

input: Please indicate if the recorded growth for "N#Cc1c(NCc2ccccc2)n[nH]c1Nc1ccccc1" meets or exceeds 90%.
output: no (0)

input: Please indicate if the recorded growth for "CN(C)c1nc(NCCNS(=O)(=O)c2ccc(C(=O)/C=C/c3ccc(F)cc3)cc2)nc(Nc2ccc(F)cc2)n1" meets or exceeds 90%.
output: no (0)

input: Please indicate if the recorded growth for "COc1cc2c3c(n(CCCN4CCC[C@@H]4CO)c(=O)c2cc1OC)-c1cc2c(cc1C3=O)OCO2" meets or exceeds 90%.
output: no (0)

input: Please indicate if the recorded growth for "C#C[C@]1(O)CC[C@H]2[C@@H]3CC=C4c5sc(-c6ccc(O)c(O)c6)nc5CC[C@]4(C)[C@H]3CC[C@@]21C" meets or exceeds 90%.
output: no (0)

input: Please indicate if the recorded growth for "Cc1ccc(C(=O)C(c2c[nH]c3ccccc23)c2c[nH]c3ccccc23)cc1" meets or exceeds 90%.
output: no (0)

input: Please indicate if the recorded growth for "O=C(Nc1ccc(C(F)(F)F)cc1)Nc1ccc2oc(=O)ccc2c1" meets or exceeds 90%.
output: no (0)

----------
Some compounds, each annotated with its measured growth.
test system: NCI/ADR-RES ovarian; experiment: NCI-60 one-dose screen, 48 h (100 = growth as untreated, 0 = no growth, -100 = all killed); settings: 10 µM unless noted
The panel holds about 83,000 compounds, 20% with a hit somewhere; the sample as a whole holds those more often.
Numbers only here, please. The scale is %.

CCOC(=O)C1=C(N)N(c2ccccc2)C2=C(C(=O)CC(C)(C)C2)C1c1cccc(Cl)c1Cl (stereo not given)	51
CN1CCN(/C(=N\c2sc(-c3ccccc3)nc2-c2ccccc2)c2ccccc2)CC1	90.4
CCCCc1c(Nn2cnnn2)no[n+]1[O-]	58.2
CN1CCN(c2ccc3c(c2)nc(NNC(=O)c2cnccn2)c2cccn23)CC1	-10
O=c1[nH]c2ccccc2cc1CSc1cccc(Nc2nccc(-c3ccc4ccccc4c3)n2)c1	51.4

// sample "COc1cc2c3c(n(CCCN4CCC[C@@H]4CO)c(=O)c2cc1OC)-c1cc2c(cc1C3=O)OCO2" , its growth was -67.4

// sample "C(=C\c1cc(/C=C/c2ccccc2)c2ccccc2n1)/c1ccccc1" , its growth was 69.7

// sample "O=c1cc(-c2ccccc2)oc2cc(OCCCC[P+](c3ccccc3)(c3ccccc3)c3ccccc3)cc(O)c12" , its growth was -68.3

// sample "CC(C)CSc1nc(NCCc2c[nH]c3ccccc23)c(C#N)c(-c2ccc(F)cc2)n1" , its growth was 39.9

// sample "O=C(COc1ccc2c(c1)CCCC(=O)N2)NCc1ccccc1" , its growth was 80.2
